Outcome measure: melting point

1. CN1CCN(c2c(F)cccc2C=C2OCCN(c3ccc(C(C)(C)C)cc3)C2=O)CC1
184.3 to 187.1 °C
2. CN1CCN(c2cccc(F)c2CC2OCCN(c3ccc(C(C)(C)C)cc3)C2=O)CC1.Cl (stereo not drawn) [Example 28 (−)]
178 to 181.4 °C
3. Cc1ccc(N2CCN(C)CC2)c(C=C2OCCN(c3ccc(C(C)(C)C)cc3)C2=O)c1
209.2 to 211 °C

Now consider a different compound.
Task item: Query melting point for CN1CCN(c2cccc(F)c2CC2OCCN(c3ccc(C(C)(C)C)cc3)C2=O)CC1.Cl (stereo not drawn) [Example 28 (+)]
Reply: 176.9 to 179.3 °C
